- assay-target: H1047R PIK3CA enzyme (Homo sapiens, UniProt P42336, H1047R)
- Sequence (P42336 whole entry H1047R): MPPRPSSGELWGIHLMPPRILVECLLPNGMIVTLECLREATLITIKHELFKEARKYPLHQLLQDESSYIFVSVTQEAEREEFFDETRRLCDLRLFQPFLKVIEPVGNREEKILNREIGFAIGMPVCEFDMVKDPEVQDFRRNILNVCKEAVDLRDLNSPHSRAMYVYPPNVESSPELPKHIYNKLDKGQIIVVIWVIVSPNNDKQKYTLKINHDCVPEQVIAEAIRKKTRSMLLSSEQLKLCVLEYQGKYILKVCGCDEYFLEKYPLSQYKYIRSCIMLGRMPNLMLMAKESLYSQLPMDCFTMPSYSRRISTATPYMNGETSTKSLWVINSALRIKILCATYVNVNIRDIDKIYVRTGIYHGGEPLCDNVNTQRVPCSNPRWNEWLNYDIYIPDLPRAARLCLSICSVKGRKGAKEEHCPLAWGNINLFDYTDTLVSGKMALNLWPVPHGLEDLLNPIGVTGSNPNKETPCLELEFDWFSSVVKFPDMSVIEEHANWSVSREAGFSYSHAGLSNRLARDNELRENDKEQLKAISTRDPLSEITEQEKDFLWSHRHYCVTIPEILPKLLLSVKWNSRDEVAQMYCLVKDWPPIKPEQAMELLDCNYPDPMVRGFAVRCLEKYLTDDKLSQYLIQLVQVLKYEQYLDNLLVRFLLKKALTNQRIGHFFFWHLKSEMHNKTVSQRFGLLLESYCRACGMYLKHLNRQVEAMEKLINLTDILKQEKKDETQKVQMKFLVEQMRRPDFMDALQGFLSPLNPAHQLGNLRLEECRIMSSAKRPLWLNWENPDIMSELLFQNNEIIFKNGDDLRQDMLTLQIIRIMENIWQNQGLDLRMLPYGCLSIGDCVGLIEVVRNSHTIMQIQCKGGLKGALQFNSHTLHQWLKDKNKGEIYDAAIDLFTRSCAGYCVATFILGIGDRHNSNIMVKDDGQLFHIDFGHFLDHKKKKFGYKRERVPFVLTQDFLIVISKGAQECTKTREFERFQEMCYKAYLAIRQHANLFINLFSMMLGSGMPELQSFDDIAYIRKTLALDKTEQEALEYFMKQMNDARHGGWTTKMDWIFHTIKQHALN
- Sequence (P27986 whole entry partner): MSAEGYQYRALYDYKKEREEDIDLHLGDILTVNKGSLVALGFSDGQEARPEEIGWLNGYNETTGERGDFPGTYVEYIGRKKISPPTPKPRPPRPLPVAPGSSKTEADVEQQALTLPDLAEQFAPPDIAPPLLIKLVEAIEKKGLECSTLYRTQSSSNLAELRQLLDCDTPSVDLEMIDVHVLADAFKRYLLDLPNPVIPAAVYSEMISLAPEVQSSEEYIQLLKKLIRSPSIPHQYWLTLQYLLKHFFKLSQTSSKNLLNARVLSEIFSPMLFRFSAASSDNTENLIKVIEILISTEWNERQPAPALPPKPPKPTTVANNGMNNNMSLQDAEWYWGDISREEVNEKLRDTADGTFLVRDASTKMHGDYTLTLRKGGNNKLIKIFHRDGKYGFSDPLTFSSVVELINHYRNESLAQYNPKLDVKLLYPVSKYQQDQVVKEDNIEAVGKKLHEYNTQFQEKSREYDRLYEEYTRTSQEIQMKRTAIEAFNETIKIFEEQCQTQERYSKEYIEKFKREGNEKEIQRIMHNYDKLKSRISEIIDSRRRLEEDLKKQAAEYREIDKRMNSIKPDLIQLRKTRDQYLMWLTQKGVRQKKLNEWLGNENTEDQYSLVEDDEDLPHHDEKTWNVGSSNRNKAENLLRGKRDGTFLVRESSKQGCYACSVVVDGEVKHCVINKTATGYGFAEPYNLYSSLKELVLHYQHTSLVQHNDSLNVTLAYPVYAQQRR
- procedure-details: ADP-Glo Biochemical PIK3CA Kinase Assay
pIC50: −log10 of the molar value.
observed-property: pIC50

stdin: Requested field: pIC50. Item: NCc1ncc(NC(=O)c2cc(F)cc(C(F)(F)F)c2)c2c1C(=O)NC2c1cc(F)ccc1Cl (stereo not drawn)
stdout: 6.00 to 6.30

stdin: Requested field: pIC50. Item: O=C(Nc1cc(-c2ccc3nnnn3c2)cc2c1C(c1cc(F)ccc1Cl)NC2=O)c1cc(F)cc(C(F)(F)F)c1 (stereo not drawn)
stdout: ≥ 7.00

stdin: Requested field: pIC50. Item: N#CCn1nc(Nc2cc(-c3ccc4ncnn4c3)cc3c2C(c2cc(F)ccc2Cl)NC3=O)c2ccccc21 (stereo not drawn)
stdout: 5.00 to 6.00

stdin: Requested field: pIC50. Item: `CC(C)n1cc(-c2cc(NC(=O)c3cc(F)cc(C(F)(F)F)c3)c3c(c2)C(=O)N[C@H]3c2cc(F)ccc2Cl)ccc1=O`
stdout: ≥ 7.00

stdin: Requested field: pIC50. Item: `NS(=O)(=O)Cc1cc(NC(=O)c2cc(F)cc(C(F)(F)F)c2)c2c(c1)C(=O)N[C@@H]2c1cc(F)ccc1Cl`
stdout: 5.00 to 6.00

stdin: Requested field: pIC50. Item: `O=C1N[C@@H](c2cc(F)ccc2Cl)c2c(NC(=O)[C@H]3CCC[C@@H](C(F)(F)F)C3)cc(-c3ccc4ncnn4c3)cc21`
stdout: ≥ 7.00
